Test system: NCI-H460 lung
Assay: NCI tumour cell line growth inhibition, 48 h
result_type: TGI

The following compounds have reported results that may help.
Data request: Consider the compound CC(C)C(=O)CC(c1ccc(Br)cc1)N1N=C(C(C)C)CC1c1ccc(Br)cc1 (stereo unspecified) and give its measured TGI.
Data returned: > 100 µM

Data request: Proceed to COc1cc(-c2cn(-c3ccc(F)cc3)c(=O)[nH]2)cc(OC)c1OC
Data returned: > 100 µM

Data request: Proceed to CCC1=NC(N/N=C/c2ccco2)=N/C1=C\c1ccco1
Data returned: > 100 µM

Next:
Data request: Consider the compound COC(=O)c1ccc(N/C=C(/C#N)c2ccsc2)cc1 and give its measured TGI.
Data returned: > 100 µM

Data request: Proceed to COc1ccccc1CNC(=O)/C=C/c1ccc(O)c(O)c1
Data returned: > 100 µM

Data request: Proceed to FC(F)(F)c1nc2c(ccc3[nH]c4c(-c5ccccc5)nccc4c32)[nH]1
Data returned: > 100 µM

* * *

System: SK-OV-3 ovarian
Experiment: NCI tumour cell line growth inhibition, 48 h; in the data active = GI50 below about 0.43 µM; inactive = the rest
Allowed answers: true (1) = active, false (0) = inactive

Past entries and their recorded results:
Data request: Please share the test call associated with COc1ncc(-c2ccc3ncnc(Nc4cccc(Cl)c4)c3c2)cc1NS(C)(=O)=O .
Data returned: false (0)

Data request: Proceed to NC1=C(/C(N)=N/O)C(c2ccccc2)c2ccc3ccccc3c2O1 (stereo unspecified)
Data returned: false (0)

Data request: Proceed to Clc1ccc2c(NCCNc3nc(N4CCCCC4)nc4ccccc34)ccnc2c1
Data returned: false (0)

Data request: Proceed to COc1ccc(-n2nc(C(=O)NCC(=O)Nc3nc4cc(OC)ccc4s3)c3ccccc3c2=O)cc1
Data returned: false (0)

Data request: Proceed to COC(=O)C(Br)(C(=O)OC)C(Br)C(Br)C(Br)c1ccccc1 (stereo unspecified)
Data returned: false (0)

Here is another compound to look at.
Data request: Please share the test call associated with COc1ccc2c(ccc3oc([N+](=O)[O-])cc32)c1 .
Data returned: true (1)

* * *

System: HL-60(TB) leukemia
Experiment: NCI tumour cell line growth inhibition, 48 h
Below is a list of entries, each paired with its recorded TGI value.
All answers are understood in µM, so give the number only.

Data request: Consider the molecule O=C(Oc1c(Cl)c(Cl)c(Cl)c(Cl)c1Cl)C1CCCN1C(=O)OCc1ccccc1 (stereo not given) and give its measured TGI.
Data returned: 6.09

Data request: Proceed to Cc1cc(=O)[nH]c(Sc2ccc([N+](=O)[O-])cc2[N+](=O)[O-])n1
Data returned: 11.3

Data request: Proceed to Cc1ccc(C2SCc3nc4ccccc4n32)cc1 (stereo not given)
Data returned: 5.94

Data request: Proceed to CCOC(=O)/C=C/C1=C(Br)[C@@]2(C)CC[C@@H]3c4ccc(O)cc4CC[C@H]3[C@@H]2C1
Data returned: 34

Data request: Proceed to COC(=O)C[C@@H]1CC=CC(=O)/C1=C(O)/C=C/c1ccccc1
Data returned: 4.31

Data request: Proceed to C=C(CN(C)C)C(=O)c1ccccc1Cl
Data returned: 29.6

* * *

Test system: OVCAR-5 ovarian
Experiment: NCI tumour cell line growth inhibition, 48 h; in the data active = GI50 below about 0.43 µM; inactive = the rest
Allowed answers: active, inactive

Data request: Please share the test call associated with COc1cc(-c2cn(-c3ccc(F)cc3)c(=O)[nH]2)cc(OC)c1OC .
Data returned: inactive

Data request: Proceed to C=CC(=O)OCCCS(=O)(=O)[O-].C=CC(=O)OCCCS(=O)(=O)[O-].NC1CCCCC1N.[Pt+4]
Data returned: inactive

Data request: Proceed to CCCCc1n(Cc2ccc3ccccc3n2)cc[n+]1Cc1ccc2ccccc2c1
Data returned: inactive

Data request: Proceed to COc1ccccc1CNC(=O)/C=C/c1ccc(O)c(O)c1
Data returned: inactive

Data request: Proceed to CN1CCC(n2cnc(-c3ccc(F)cc3)c2-c2ccnc(Nc3ccccc3)n2)CC1
Data returned: inactive

Data request: Proceed to NCCNc1nc2ccc(F)cc2c2c(=O)c3cc(F)ccc3sc12
Data returned: inactive

Data request: Proceed to CCOC(=O)CC1C(CNC(=O)NC)OC(n2cnc3c(NC(=O)Nc4ccccc4)ncnc32)C1O[Si](C)(C)C(C)(C)C (stereo not given)
Data returned: inactive

Data request: Proceed to COc1cc(NC(=O)c2cc3ccccc3cc2O)c(OC)cc1Cl
Data returned: inactive

Data request: Proceed to COc1ccc2c(ccc3oc([N+](=O)[O-])cc32)c1
Data returned: active

Data request: Proceed to COc1ncc(-c2ccc3ncnc(Nc4cccc(Cl)c4)c3c2)cc1NS(C)(=O)=O
Data returned: active

Data request: Proceed to O=C(/C=C/c1cc(O)ccc1O)c1ccc(Cl)cc1
Data returned: inactive

Data request: Proceed to NC1=C(/C(N)=N/O)C(c2ccccc2)c2ccc3ccccc3c2O1 (stereo not given)
Data returned: inactive

Data request: Proceed to CC1(C)CC(C(=O)OCCCCCCCCCCC[P+](c2ccccc2)(c2ccccc2)c2ccccc2)C(C)(C)N1O (stereo not given)
Data returned: active

Data request: Proceed to CS(=O)(=O)Nc1cccc(-c2ccc3ncnc(Nc4cncc(Cl)c4)c3c2)c1
Data returned: inactive

Data request: Proceed to C=CC(=O)N1CCC(CNc2ncnc(N)c2-c2ccc(Oc3ccccc3)cc2)CC1
Data returned: inactive

* * *

System: NCI-H23 lung
Assay: NCI tumour cell line growth inhibition, 48 h
Below is a list of entries, each paired with its recorded TGI value.

The following compounds have reported results that may help.
Data request: Consider the compound NC(=S)N/N=C(/CCN1CCCC1)CC(C1=C(O)C2=CCCCC2OC1=O)c1ccccc1 (centres undefined) and give its measured TGI.
Data returned: > 100 µM

Data request: Proceed to C#CCOCn1cnc2c(N)ncnc21
Data returned: > 100 µM

Data request: Proceed to O=S(C(c1ccccc1)=P(c1ccccc1)(c1ccccc1)c1ccccc1)c1ccc(Cl)cc1 (centres undefined)
Data returned: > 100 µM

Next:
Data request: Consider the compound Nc1ccccc1-n1c2c(c3ccccc3c1=O)C(=O)c1ccccc1-2 and give its measured TGI.
Data returned: 51.1 µM

* * *

Test system: KM12 colon
Experiment: NCI tumour cell line growth inhibition, 48 h
result_type: TGI

The following compounds have reported results that may help.
Data request: Consider the compound CS(=O)(=O)Nc1ccc(NCc2cnc3ccc4[nH]cccc4c23)cc1 and give its measured TGI.
Data returned: 36.7 µM

Data request: Proceed to Oc1cc(F)cc2cccnc12
Data returned: > 100 µM

Let us move to another entry and its TGI.
Data request: Consider the compound C/C(=N\NC(N)=S)C(CN1CCCCC1)C(C1=C(O)c2ccccc2OC1)c1ccccc1 (configuration not stated) and give its measured TGI.
Data returned: > 100 µM

* * *

Below is a list of entries, each paired with its recorded TGI value.
System: KM20L2 colon
Test: NCI tumour cell line growth inhibition, 48 h

The following molecules have reported results that may help.
Data request: Consider the molecule NC(=O)/C=C/c1c[nH]c2nccnc12 and give its measured TGI.
Data returned: 1.35 µM

Data request: Proceed to CC(=O)NC(CCCCN(Cc1ccccc1)C(=O)N(C)N=O)C(=O)NCc1ccccc1 (stereo unspecified)
Data returned: > 100 µM

Data request: Proceed to O=C(c1nc2ccc(Cl)cc2[nH]c1=O)C(O)c1cccc([N+](=O)[O-])c1 (stereo unspecified)
Data returned: > 100 µM

Next:
Data request: Consider the molecule CCOc1cc2cnc3c4cc(OC)c(OC)cc4ccc3c2cc1OC and give its measured TGI.
Data returned: > 100 µM

Data request: Proceed to FC(F)(F)c1nc2c(ccc3[nH]c4c(-c5ccccc5)nccc4c32)[nH]1
Data returned: > 100 µM

* * *

System: A498 renal
Assay: NCI tumour cell line growth inhibition, 48 h
result_type: TGI

The following compounds have reported results that may help.
Data request: Consider the compound C#CCOCn1cnc2c(N)ncnc21 and give its measured TGI.
Data returned: > 100 µM

Data request: Proceed to CCOC(=O)c1cccc(N=Nc2ncc(/C=C/C(=O)OC)[nH]2)c1
Data returned: 67.8 µM

Data request: Proceed to NC(N)=N/N=C/c1c(-c2cccs2)nc2n1CCS2
Data returned: > 100 µM

Data request: Proceed to C=CC(=O)OCCCS(=O)(=O)[O-].C=CC(=O)OCCCS(=O)(=O)[O-].NC1CCCCC1N.[Pt+4]
Data returned: > 25 µM

Data request: Proceed to CC(O)/C=C/C1OC(=O)CC1Nc1ccc(C=O)cc1 (stereo unspecified)
Data returned: > 100 µM

Let us move to another entry and its TGI.
Data request: Consider the compound CNc1cc(Cl)ccc1C(=O)N1CCC[C@H]1CO and give its measured TGI.
Data returned: > 100 µM

* * *

Tested on: BT-549 breast
Assay: NCI tumour cell line growth inhibition, 48 h
result_type: TGI (µM)
All answers are understood in µM, so give the number only.

Data request: Consider the compound Nc1csc(-c2scc3c2OCCO3)c1N and give its measured TGI.
Data returned: 50.2

Let us move to another entry and its TGI.
Data request: Consider the compound CC(=O)O[C@H]1C(=O)[C@@]2(C)[C@H]([C@H](OC(=O)c3ccccc3)[C@]3(O)C[C@H](OC(=O)[C@H](O)[C@@H](NC(=O)C(C)(O)C(C)O)c4ccccc4)C(C)=C1C3(C)C)[C@]1(OC(C)=O)CO[C@@H]1C[C@@H]2O (some centres undefined) and give its measured TGI.
Data returned: 3.45
